- Measurement target: human p38 kinase alpha (Homo sapiens, UniProt Q16539)
- Construct: GST (N, cleaved yes); made in house; host or cells: E. coli DH10B
- Sequence (Q16539 whole entry): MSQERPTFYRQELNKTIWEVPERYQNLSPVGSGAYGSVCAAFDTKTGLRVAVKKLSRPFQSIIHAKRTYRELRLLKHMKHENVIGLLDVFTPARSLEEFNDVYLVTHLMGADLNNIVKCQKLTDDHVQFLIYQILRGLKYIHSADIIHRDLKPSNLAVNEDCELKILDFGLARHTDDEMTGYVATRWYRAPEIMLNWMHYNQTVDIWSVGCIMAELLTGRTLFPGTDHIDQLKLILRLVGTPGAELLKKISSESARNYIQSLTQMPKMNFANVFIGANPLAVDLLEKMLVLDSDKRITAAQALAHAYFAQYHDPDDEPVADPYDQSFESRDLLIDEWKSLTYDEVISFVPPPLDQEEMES
- Method summary: p38 kinase in vitro assay, phosphorylation of biotinylated PHAS-I with 32P-ATP
- Format: biochemical
- Condition parameters: @ 1.0 uM
Measure: P38 alpha kinase % inhib @ conc. (% @)
Reply with just the number (in % @).

// below: answered molecules
Molecule: Cc1cccc(C)c1NC(=O)NCCCc1[nH]nc(-c2ccc(F)cc2)c1-c1ccncc1 [Example B-1216]
Quantitative result: 88.0
//
Molecule: O=C(NCCCc1[nH]nc(-c2ccc(F)cc2)c1-c1ccncc1)NCc1ccccc1 [Example B-1208]
Quantitative result: 82.0
//
Molecule: CCOC(=O)C(CCSC)NC(=O)NCc1[nH]nc(-c2ccc(F)cc2)c1-c1ccncc1 (stereo not shown) [Example B-0147]
Quantitative result: 44.0

Which value of P38 alpha kinase % inhib @ conc. has been reported for CNC(=O)NCCCc1[nH]nc(-c2ccc(F)cc2)c1-c1ccncc1 [Example B-1213] in the records?
84.0

Which value of P38 alpha kinase % inhib @ conc. has been reported for O=S(=O)(NCc1[nH]nc(-c2ccc(F)cc2)c1-c1ccncc1)c1cc(Br)c(Br)s1 [Example B-0136] in the records?
77.0

Which value of P38 alpha kinase % inhib @ conc. has been reported for CCCOC(=O)NCCCc1[nH]nc(-c2ccc(F)cc2)c1-c1ccncc1 [Example B-1230] in the records?
90.0

Which value of P38 alpha kinase % inhib @ conc. has been reported for O=C(NCCCc1[nH]nc(-c2ccc(F)cc2)c1-c1ccncc1)N1CCOCC1 [Example B-1210] in the records?
82.0

Which value of P38 alpha kinase % inhib @ conc. has been reported for CC(C)OC(=O)NCCCc1[nH]nc(-c2ccc(F)cc2)c1-c1ccncc1 [Example B-1234] in the records?
89.0
